The reported numbers originate from ChEMBL document CHEMBL5523761.

target_system: D(4) dopamine receptor (Homo sapiens)
Sequence (P21917 whole entry): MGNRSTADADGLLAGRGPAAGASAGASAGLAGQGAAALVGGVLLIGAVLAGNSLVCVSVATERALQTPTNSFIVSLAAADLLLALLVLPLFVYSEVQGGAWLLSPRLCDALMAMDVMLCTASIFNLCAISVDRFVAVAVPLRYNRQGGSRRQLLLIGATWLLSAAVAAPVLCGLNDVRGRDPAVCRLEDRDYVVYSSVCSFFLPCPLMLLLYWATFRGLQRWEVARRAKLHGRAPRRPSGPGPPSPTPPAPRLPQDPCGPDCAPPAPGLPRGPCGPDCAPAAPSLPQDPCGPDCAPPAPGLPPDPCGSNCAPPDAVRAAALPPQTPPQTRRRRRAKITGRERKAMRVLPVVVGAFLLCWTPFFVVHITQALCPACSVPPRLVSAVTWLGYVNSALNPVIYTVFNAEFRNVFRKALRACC
measurement_label: IC50 (µM)
Write the answer as a number in µM, unit excluded.

Task: Entry under review: `O=c1cc(-c2ccc(O)c(O)c2)oc2cc(O)cc(O)c12` . Reported IC50?
Output: 39.6
